Tested on: Male C57BL/6J mice
Assay: Evaluation of GHSR1a antagonists on food intake test in mouse
Format: in vivo
Conditions: Mus musculus, ip; 10 mg/kg i.p.; at 1 hr
Here the recorded inhibition in vivo at 10 mg/kg is given for each entry.
State the value, then name its unit.

CC(NC(=O)N(Cc1ccccc1Cl)C1CCN(C)CC1)c1cccc(Cl)c1Cl (stereo not shown)
95%
COc1ccc(C(CO)NC(=O)N(C)C2CCN(C)CC2)c2ccccc12 (stereo not shown)
47%
CC(NC(=O)N(C)C1CCN(C)CC1(C)C)c1cccc(Cl)c1Cl (stereo not shown)
26%
CC(NC(=O)N(Cc1ccccc1)C1CCN(C)CC1)c1cccc(Cl)c1Cl (stereo not shown)
47%
CN1CCC(N(C)C(=O)NC(COCc2ccccc2)c2cccc(Cl)c2Cl)CC1 (stereo not shown)
40%

# input Tell me reported inhibition in vivo at 10 mg/kg for CC(NC(=O)N(Cc1cccc(F)c1)C1CCN(C)CC1)c1cccc(Cl)c1Cl (stereo not shown) , tested with Male C57BL/6J mice.
# output 44%

# input And CCN(C(=O)NC(CCc1cccc(OCc2cccnc2)c1)c1cccc2ccccc12)C1CCN(C)CC1 (stereo not shown) ?
# output 74%

====

Target: GHSR-1a (Homo sapiens, UniProt Q92847)
Sequence (Q92847 whole entry): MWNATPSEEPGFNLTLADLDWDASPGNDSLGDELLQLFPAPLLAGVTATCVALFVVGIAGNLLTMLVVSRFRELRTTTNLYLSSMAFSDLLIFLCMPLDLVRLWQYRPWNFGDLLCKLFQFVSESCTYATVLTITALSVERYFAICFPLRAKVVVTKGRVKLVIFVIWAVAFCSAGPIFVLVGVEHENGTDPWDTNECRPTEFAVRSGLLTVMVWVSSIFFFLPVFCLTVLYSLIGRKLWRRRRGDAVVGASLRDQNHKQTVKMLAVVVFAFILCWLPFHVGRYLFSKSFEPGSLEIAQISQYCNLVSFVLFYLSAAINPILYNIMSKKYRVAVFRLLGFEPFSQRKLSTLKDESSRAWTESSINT
Test: Calcium FLIPR assay, GHSR-1a antagonism (reduction of ghrelin response)
Details: HEK293/GHSR1a cell line; ghrelin 10 nM; read-out: IC50 FLIPR antagonist Activity
pIC50 reference
// returns pIC50 (minus log10 of molar concentration), number only

Recorded results for 6 molecules are shown here.
C[C@@H](NC(=O)N(C)C1CCN(C)CC1(C)C)c1cccc2ccccc12 (some centres unmarked)
7.68
CC(NC(=O)N(C)C1CCN(C)CC1)c1cccc(Cl)c1Cl (centres unmarked)
6.92
CC(NC(=O)N(Cc1cccc(F)c1)C1CCN(C)CC1)c1cccc(Cl)c1Cl (centres unmarked)
7.19
CC(NC(=O)N(Cc1ccccc1Cl)C1CCN(C)CC1)c1cccc(Cl)c1Cl (centres unmarked)
7.42
COc1ccc(C(CO)NC(=O)N(C)C2CCN(C)CC2)c2ccccc12 (centres unmarked)
7.18
CCN(C(=O)NC(C)c1cccc2ccccc12)C1CCN(C)CC1 (centres unmarked)
6.49

# input Given the entry COc1ccc(C(C)NC(=O)N(C)C2CCN(C)CC2(C)C)c2ccccc12 (centres unmarked) , report its measured pIC50.
# output 7.92

# input Same read-out for COc1ccc(C(C)NC(=O)N(OC)C2CCN(C)CC2)c(Cl)c1Cl (centres unmarked) ?
# output 8.40

# input Try COc1ccc(C(C)NC(=O)N(C)C2CCN(C)CC2(C)C)c(Cl)c1Cl (centres unmarked) next.
# output 8.52

# input And the next one, CN1CCC(N(C)C(=O)NC(COCc2ccccc2)c2cccc(Cl)c2Cl)CC1 (centres unmarked) ?
# output 7.15

# input Please give the result for C[C@@H](NC(=O)N(Cc1ccccc1)C1CCN(C)CC1(C)C)c1cccc2ccccc12 (some centres unmarked) too.
# output 8.30

# input How about COc1ccc(C(C)NC(=O)N(C)C2CCN(C)CC2)c2ccccc12 (centres unmarked) ?
# output 7.40

# input And for CC(NC(=O)N(C)C1CCN(C)CC1(C)C)c1cccc(Cl)c1Cl (centres unmarked) ?
# output 7.92

# input Consider next the molecule COc1cccc(CN(C(=O)N[C@H](C)c2cccc(Cl)c2Cl)C2CCN(C)CC2C)c1 (some centres unmarked) in the same way.
# output 8.30

====

Biological target: GHSR-1a (Homo sapiens, UniProt Q92847)
Test: Calcium FLIPR assay, GHSR-1a antagonism (reduction of ghrelin response)
Details: HEK293/GHSR1a cell line; ghrelin 10 nM; read-out: IC50 FLIPR antagonist Activity
Please assign Not met whenever IC50 is at or above 20 nM, and Met whenever it is below.

Field: example entries. Status: answers known.
CC(NC(=O)N(Cc1ccccc1F)C1CCN(C)CC1(C)C)c1cccc(Cl)c1Cl (centres unmarked)
Met
COc1cccc(CN(C(=O)NC(C)c2cccc(Cl)c2Cl)C2CCN(C)CC2(C)C)c1 (centres unmarked)
Met
CCN(C(=O)NC(CCc1cccc(OCc2cccnc2)c1)c1cccc2ccccc12)C1CCN(C)CC1 (centres unmarked)
Not met
CN1CCC(N(C)C(=O)NC(CO)c2cccc3ccccc23)CC1 (centres unmarked)
Not met

# input Does this molecule meet the criterion IC50 < 20 nM? CC(NC(=O)N(Cc1ccccc1)C1CCN(C)CC1)c1cccc(Cl)c1Cl (centres unmarked)
# output Not met

====

Biological target: GHSR-1a (Homo sapiens)
Construct: expressed in transfected cells; host or cells: HEK293
Assay: Calcium FLIPR assay, GHSR-1a agonism
Type: cell-based
Conditions: HEK293/GHSR1a cell line; read-out: EC50 FLIPR against Activity (EC50 part of μM/Emax)
Mark rule met only for EC50 values smaller than 0.01 µM; exact matches and larger values are rule not met.

CN1CCC(N(C)C(=O)NC(CO)c2cccc3ccccc23)CC1 (stereo not drawn)
rule not met
COc1ccc(C(C)NC(=O)N(OC)C2CCN(C)CC2)c(Cl)c1Cl (stereo not drawn)
rule met
COc1ccc(C(CO)NC(=O)N(C)C2CCN(C)CC2)c2ccccc12 (stereo not drawn)
rule not met

# input # check: EC50 < 0.01 µM for CC(NC(=O)N(C)C1CCN(C)CC1)c1cccc(Cl)c1Cl (stereo not drawn)
# output rule met

# input What about this compound? COc1ccc(C(C)NC(=O)N(C)C2CCN(C)CC2)c2ccccc12 (stereo not drawn)
# output rule not met

# input Input CCN(C(=O)NC(CCc1cccc(OCc2cccnc2)c1)c1cccc2ccccc12)C1CCN(C)CC1 (stereo not drawn)
# output rule not met

# input Now consider C[C@@H](NC(=O)N(C)C1CCN(C)CC1(C)C)c1cccc2ccccc12 (stereo partly drawn) .
# output rule met

# input Moving on to COc1ccc(C(C)NC(=O)N(O)C2CCN(C)CC2)c2ccccc12 (stereo not drawn)
# output rule met

# input Cool, now CC(NC(=O)N(Cc1ccccc1)C1CCN(C)CC1)c1cccc(Cl)c1Cl (stereo not drawn)
# output rule not met

# input Queued: C[C@@H](NC(=O)N(Cc1ccccc1)C1CCN(C)CC1(C)C)c1cccc2ccccc12 (stereo partly drawn)
# output rule met
